Target: Histamine H3 receptor (Cavia porcellus)
Sequence (Q9JI35 whole entry): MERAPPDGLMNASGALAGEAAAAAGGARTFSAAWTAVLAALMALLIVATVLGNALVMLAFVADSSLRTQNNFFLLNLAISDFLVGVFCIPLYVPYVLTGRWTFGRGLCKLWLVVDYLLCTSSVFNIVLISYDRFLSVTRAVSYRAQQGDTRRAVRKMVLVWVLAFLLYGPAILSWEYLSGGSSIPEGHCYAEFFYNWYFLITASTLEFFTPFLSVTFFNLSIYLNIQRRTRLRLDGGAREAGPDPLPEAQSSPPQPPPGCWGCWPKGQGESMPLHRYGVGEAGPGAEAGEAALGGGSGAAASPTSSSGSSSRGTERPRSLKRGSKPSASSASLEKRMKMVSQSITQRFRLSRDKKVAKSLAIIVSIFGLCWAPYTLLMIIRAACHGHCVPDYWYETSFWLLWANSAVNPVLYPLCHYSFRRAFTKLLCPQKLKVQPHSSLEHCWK
Experiment: Antagonist activity at histamine H3 receptor in guinea pig jejunum assessed as effect on […] inhibition of electrically evoked contraction treated 20 mins after […]
Assay type: tissue-based
Settings: read-out: pA2 (converted)
measurement.name: Kb (µM)

S=C(NC1CCCCC1)N1CCC(c2cnc[nH]2)CC1 [THIOPERAMIDE] | 0.00105
N=C(N)N(CCCCN1CCN(CCCCN(Cc2ccc(C(F)(F)F)cc2)C(=N)N)CC1)Cc1ccc(C(F)(F)F)cc1 | 0.0102
N#C/N=C(\N)N(CCCCN1CCN(CCCCCCCOc2ccccc2)CC1)Cc1ccccc1 | 0.0501
N=C(N)N(CCCCN1CCC(CCCCCCCOc2ccccc2)CC1)Cc1ccc(C(F)(F)F)cc1 | 0.0126

(P) N=C(NCCCCN1CCN(CCCCCCCOc2ccccc2)CC1)NCc1ccc(C(F)(F)F)cc1
(Q) c1ccc(OCCCCCCCN2CCN(CCCCCCCOc3ccccc3)CC2)cc1
// pick min by Kb: P , Q Use the label to indicate which entry you chose.
P
(P: 0.0107 µM, Q: 1.66 µM)

(A) N=C(NCCCCN1CCN(CCCCCCCOc2ccccc2)CC1)NCc1ccccc1
(B) N=C(N)N(CCCCCCCOc1ccccc1)Cc1ccccc1
(C) N=C(N)N(CCCCC1CCN(CCCCCCCOc2ccccc2)CC1)Cc1ccc(C(F)(F)F)cc1
Hey, quick one: sort these by Kb, low to high? Show the ranking through the labels, in the order asked for.
C, A, B

All figures here come from ChEMBL document CHEMBL4480372.
